Where do the numbers come from? From patent US11873291B2.

Target: recombinant human cGAS (aa147-522) (Homo sapiens, UniProt Q8N884)
Construct: recombinant human cGAS (aa147-522); His6-SUMO (cleaved yes); made in house; host or cells: E. coli BL21/pLys
Sequence (Q8N884 147-522): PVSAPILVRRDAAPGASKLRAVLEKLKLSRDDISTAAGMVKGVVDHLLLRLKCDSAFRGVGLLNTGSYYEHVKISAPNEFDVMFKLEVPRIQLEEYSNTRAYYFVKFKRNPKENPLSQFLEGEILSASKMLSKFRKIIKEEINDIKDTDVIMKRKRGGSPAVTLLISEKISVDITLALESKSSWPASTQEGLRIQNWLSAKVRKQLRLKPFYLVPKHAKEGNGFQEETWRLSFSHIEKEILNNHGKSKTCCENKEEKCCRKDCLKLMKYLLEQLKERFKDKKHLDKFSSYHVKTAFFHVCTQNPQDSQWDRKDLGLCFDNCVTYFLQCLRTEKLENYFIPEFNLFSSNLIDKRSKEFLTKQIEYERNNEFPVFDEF
Assay: In vitro inhibition assay of cGAS activity (ATP consumption, KinaseGlo Max)
Type: biochemical
Conditions: Table 3, read-out: cGAS Inhibition Results IC50
Listing of entries alongside the reported IC50.
readout.type: IC50

INSERT INTO assay_data (structure_as_smiles, result) VALUES
  ('O=C(C[C@@H]1CCCN1c1cc(-n2ccnc2)c2ccc(Cl)c(Cl)c2n1)NS(=O)(=O)C(F)F', '< 2000 nM'),
  ('C=C1C[C@@H](COCCC(=O)O)N(c2cc(-n3ccnc3)c3ccc(Cl)c(Cl)c3n2)C1', '< 2000 nM'),
  ('CN(CCCOc1ccccc1C(=O)O)c1cc(-n2ccnc2)c2ccc(Cl)c(Cl)c2n1', '< 2000 nM'),
  ('CC(C)N(CCCOc1ccncc1C(=O)O)c1cc(-n2ccnc2)c2ccc(Cl)c(Cl)c2n1', '2000 to 30000 nM');

###

Molecular target: recombinant human cGAS (aa147-522) (Homo sapiens)
Construct: recombinant human cGAS (aa147-522); His6-SUMO (cleaved yes); made in house; host or cells: E. coli BL21/pLys
Assay: In vitro inhibition assay of cGAS activity (ATP consumption, KinaseGlo Max)
Format: biochemical
Conditions: Table 2, read-out: cGAS Inhibition Results IC50
pIC50: −log10 of the molar value.
Measured pIC50, listed per entry.
readout.type: pIC50

INSERT INTO measurements (structure_as_smiles, result) VALUES
  ('C[C@H](CC(=O)O)Nc1cc(-n2ccnc2)c2ccc(Cl)c(Cl)c2n1', '4.52 to 5.70'),
  ('OCCNc1cc(-c2cn[nH]c2)nc2c(Cl)c(Cl)ccc12', '4.52 to 5.70'),
  ('O=C(O)[C@@H]1CCCN1c1cc(-c2cn[nH]c2)nc2c(Cl)c(Cl)ccc12', '4.52 to 5.70'),
  ('NS(=O)(=O)CCNc1cc(-c2cn[nH]c2)c2c(Cl)c(Cl)ccc2n1', '< 4.52'),
  ('Clc1ccc2c(-n3ccnc3)cc(N3CCCCC3)nc2c1Cl', '4.52 to 5.70'),
  ('C[C@@]1(C(=O)O)CCCN1c1cc(-n2ccnc2)c2ccc(Cl)c(Cl)c2n1', '4.52 to 5.70'),
  ('O=C1COc2ccc(S(=O)(=O)NC[C@@H]3CCCN3c3cc(-n4ccnc4)c4ccc(Cl)c(Cl)c4n3)cc2N1', '< 4.52'),
  ('O=S1(=O)CCN(c2cc(-n3ccnc3)c3ccc(Cl)c(Cl)c3n2)CC1', '4.52 to 5.70'),
  ('COC(CN(C)c1cc(-n2ccnc2)c2ccc(Cl)c(Cl)c2n1)OC', '4.52 to 5.70');

###

Target: recombinant human cGAS (aa147-522) (Homo sapiens)
Construct: recombinant human cGAS (aa147-522); His6-SUMO (cleaved yes); made in house; host or cells: E. coli BL21/pLys
Assay: In vitro inhibition assay of cGAS activity (ATP consumption, KinaseGlo Max)
Assay type: biochemical
Conditions: Table 2, read-out: cGAS Inhibition Results IC50
pIC50: −log10 of the molar value.
readout.type: pIC50

INSERT INTO measurements (molecule, readout_type, result) VALUES
  ('CCN1CCN(c2cc(-n3ccnc3)c3ccc(Cl)c(Cl)c3n2)CC1C(=O)O (stereo not drawn) [I-80]', 'pIC50', '> 5.70'),
  ('O=C(O)CNc1cc(-c2cn[nH]c2)nc2cc(Cl)cc(Cl)c12 [I-300]', 'pIC50', '< 4.52'),
  ('COc1ccc2c(-n3ccnc3)ccnc2c1 [I-417]', 'pIC50', '< 4.52'),
  ('O=C(CO)N[C@@H]1C[C@@H](C(=O)O)N(c2cc(-n3ccnc3)c3ccc(Cl)c(Cl)c3n2)C1 [I-346]', 'pIC50', '> 5.70'),
  ('COc1ccc(-c2cc(-n3ccnc3)c3ccc(Cl)c(Cl)c3n2)cc1C#N [I-40]', 'pIC50', '< 4.52'),
  ('C[C@@H](CO)N(C)c1cc(-n2ccnc2)c2ccc(Cl)c(Cl)c2n1 [I-241]', 'pIC50', '> 5.70'),
  ('O=C(O)[C@H]1CCCN1c1cc(-c2cn[nH]c2)nc2c(Cl)c(Cl)ccc12 [I-292]', 'pIC50', '4.52 to 5.70'),
  ('CN(CCNS(N)(=O)=O)c1cc(-n2ccnc2)c2ccc(Cl)c(Cl)c2n1 [I-223]', 'pIC50', '> 5.70'),
  ('NS(=O)(=O)N1CCOC(CNc2cc(-n3ccnc3)c3ccc(Cl)c(Cl)c3n2)C1 (stereo not drawn) [I-219]', 'pIC50', '> 5.70');
